// data source = patent US20200031778A1

Tested on: Uromyces appendiculatus
Assay: Example IX-D: in vivo preventive test on Uromyces appendiculatus (bean rust)
Conditions: 264 h, compounds of formula IX, 500 ppm of active ingredient, bean plants, preventive spray, evaluated 11 days after inoculation, read-out: efficacy
Measure name: pest or weed control at 500 ppm

Use these answered entries as a reference point.
> print(dat)
                              line.notation         target.or.system                     measure.name  reported.value
1  O=C(Cn1cncc1Br)c1ccc(Oc2ccc(Cl)cc2)cc1Cl  Uromyces appendiculatus  pest or weed control at 500 ppm      90 to 100%
2   O=C(Cn1cncc1F)c1cnc(Oc2ccc(Cl)cc2)cc1Cl  Uromyces appendiculatus  pest or weed control at 500 ppm      90 to 100%
3  O=C(Cn1cncc1F)c1cnc(Oc2ccc(Br)cc2)cc1C(F)(F)F  Uromyces appendiculatus  pest or weed control at 500 ppm      90 to 100%
4  O=C(Cn1cncc1F)c1ccc(Oc2ccc(C(F)F)cc2)nc1Cl  Uromyces appendiculatus  pest or weed control at 500 ppm      90 to 100%
5  N#Cc1cncn1CC(=O)c1ccc(Oc2ccc(Br)cc2)nc1C(F)(F)F  Uromyces appendiculatus  pest or weed control at 500 ppm       80 to 89%

Find the measured pest or weed control at 500 ppm: item O=C(Cn1cncc1Br)c1ccc(Oc2ccc(Br)cc2)cc1Br , target or system Uromyces appendiculatus.
90 to 100%

Another compound to look at: N#Cc1cncn1CC(=O)c1cnc(Oc2ccc(Br)cc2)cc1C(F)F
90 to 100%

For N#Cc1cncn1CC(=O)c1cnc(Oc2ccc(C(F)F)cc2)cc1C(F)(F)F then?
90 to 100%

Now try O=C(Cn1cncc1Cl)c1ccc(Oc2ccc(I)cc2)cc1Br .
90 to 100%

Same thing, different compound: N#Cc1cncn1CC(=O)c1cnc(Oc2ccc(C(F)(F)F)cc2)cc1C(F)(F)F
90 to 100%

###

Experiment: Log P by HPLC on reversed phase columns (EEC directive 79/831 Annex V.A8; methods [a], [b], [c])
Type: physicochemical
# Lookup of reported LogP keyed by entry

Illustrative cases are given below, each with its answer.
> print(dat)
                                   compound  reported.value
1  OC(Cn1cncc1F)(c1ccc(Cl)cc1F)C1(F)CC1 (stereo not drawn) [I-437]        1.57^[a]
2  OC(Cn1cncc1Br)c1ccc(Oc2ccc(Br)cc2)cc1Br (stereo not drawn) [I-44]        2.78^[a]
3  COC(Cn1cncc1C(F)(F)F)c1ccc(Oc2ccc(Cl)cc2)cc1F (stereo not drawn) [I-93]        4.34^[a]
4  CC(C)C(O)(Cn1cncc1C#N)c1ccc(Cl)cc1Cl (stereo not drawn) [I-300]        2.92^[a]
5  CC(C)(C)C(O)(Cn1cncc1C#N)c1ccc(F)c(F)c1 (stereo not drawn) [I-483]        2.66^[a]

Reported LogP for N#Cc1cncn1CC(O)(c1cc(F)cc(Cl)c1)C1(F)CC1 (stereo not drawn) [I-474] : what is it?
2.38^[a]

And the next one, OC(Cn1cncc1F)c1ccc(Oc2ccc(Cl)cc2)nc1C(F)(F)F (stereo not drawn) [I-123] ?
2.25^[a]

What about N#Cc1cncn1CC(O)(CCC1CCCC1)C1(F)CC1 (stereo not drawn) [I-598] ?
3.00^[a]

Field entry: N#Cc1cncn1CC(O)(c1ccc(C#CC2CCCC2)cc1F)C1(F)CC1 (stereo not drawn) [I-644]
3.74^[a]

Then what about the compound CC(O)(Cn1cncc1Cl)c1ccc(Oc2ccc(C(F)(F)F)cc2)cc1Cl (stereo not drawn) [I-159] ?
3.02^[a]

Same for CC(C)(C)CC(O)(Cn1cncc1C#N)c1ccc(Cl)cc1 (stereo not drawn) [I-223]
3.11^[a]

Next entry: CC(C)(C)C#Cc1ccc(C(O)(Cn2cncc2C#N)C2(Cl)CC2)c(F)c1 (stereo not drawn) [I-653]
3.79^[a]

Input CCCC(O)(Cn1cncc1C#N)c1ccc(Cl)cc1Br (stereo not drawn) [I-409]
3.13^[a]

// same read-out, input: N#Cc1cncn1CC(O)(c1ccc(F)cc1F)C1(F)CC1 (stereo not drawn) [I-352]
2.08^[a]

Try CC(O)(Cn1cncc1C#N)c1ccc(Oc2ccc(I)cc2)cc1Cl (stereo not drawn) [I-202] next.
3.73^[a]

For OC(Cn1cncc1Cl)c1ccc(Oc2ccccn2)cc1Cl (stereo not drawn) [I-80] then?
1.53^[a]
